assay.info: Intrinsic clearance in mouse liver microsomes assessed as NADPH-dependent metabolism per mg protein at 1 uM in presence of NADPH by LC-MS/MS analysis
Type: ADME, Microsome
experimental.endpoint: intrinsic clearance per mg protein (µL/min)
One number for each entry, in µL/min.

# entry.smiles, intrinsic clearance per mg protein / µL/min
data = [
    ("Cc1c(C(=O)Nc2ccc(F)c(Cl)c2)sc(N)c1C(N)=O", 28),
]

# batch: return intrinsic clearance per mg protein for each of the 3 compounds below
1. Cc1cc(NC(=O)c2sc(N)c(C(N)=O)c2C)ccc1F
2. Cc1c(C(=O)Nc2ccc(F)c(C#N)c2)sc(N)c1C(N)=O
3. Cc1c(C(=O)Nc2ccc(F)c(F)c2)sc(N)c1C(N)=O

1. 92
2. 4.2
3. 25

# batch: return intrinsic clearance per mg protein for each of the 2 compounds below
1. Cc1c(C(=O)Nc2ccccc2)sc(N)c1C(N)=O
2. Cc1c(C(=O)Nc2ccc(F)c(C(F)F)c2)sc(N)c1C(N)=O

[18, 22]

###

assay.info: Half life in human plasma at 1 uM by LC-MS/MS analysis
Type: ADME, cell-free
experimental.endpoint: t1/2

# entry.smiles, result
data = [
    ("Cc1cc(NC(=O)c2sc(N)c(C(N)=O)c2C)ccc1F", "> 24 h"),
    ("Cc1c(C(=O)Nc2ccc(F)c(F)c2)sc(N)c1C(N)=O", "> 24 h"),
    ("Cc1c(C(=O)Nc2ccc(F)c(C(F)F)c2)sc(N)c1C(N)=O", "> 24 h"),
    ("Cc1c(C(=O)Nc2ccc(F)c(C#N)c2)sc(N)c1C(N)=O", "> 24 h"),
    ("Cc1c(C(=O)Nc2ccc(F)c(Cl)c2)sc(N)c1C(N)=O", "> 24 h"),
]

Let us examine a further case.
Specify reported t1/2 for the compound shown: Cc1c(C(=O)Nc2ccccc2)sc(N)c1C(N)=O
> 24 h

###

assay.info: Intrinsic clearance in mouse liver microsomes assessed as glucuronidation per mg protein at 1 uM in presence of UDPGA by LC-MS/MS analysis
Type: ADME, Microsome
Classify by measured intrinsic clearance (CLint): 1 if it is equal to or exceeds 5 µL/min, 0 if it is smaller.

Reference set (2 entries):
# entry.smiles, label.class
measured = [
    ("Cc1c(C(=O)Nc2ccccc2)sc(N)c1C(N)=O", 0),
    ("Cc1c(C(=O)Nc2ccc(F)c(C#N)c2)sc(N)c1C(N)=O", 0),
]

Hi, just wondering whether Cc1cc(NC(=O)c2sc(N)c(C(N)=O)c2C)ccc1F shows intrinsic clearance (CLint) of 5 µL/min or higher.
1

Hi, just wondering whether Cc1c(C(=O)Nc2ccc(F)c(C(F)F)c2)sc(N)c1C(N)=O shows intrinsic clearance (CLint) of 5 µL/min or higher.
1

Hi, just wondering whether Cc1c(C(=O)Nc2ccc(F)c(Cl)c2)sc(N)c1C(N)=O shows intrinsic clearance (CLint) of 5 µL/min or higher.
0

Hi, just wondering whether Cc1c(C(=O)Nc2ccc(F)c(F)c2)sc(N)c1C(N)=O shows intrinsic clearance (CLint) of 5 µL/min or higher.
1

###

assay.info: Protein binding in mouse plasma at 5 uM incubated for 5 hrs by LC-MS/MS-based equilibrium dialysis method
Type: ADME, cell-free
experimental.endpoint: PPB (%)
Numbers only, in %.

# entry.smiles, unit.string, PPB
measured = [
    ("Cc1c(C(=O)Nc2ccc(F)c(F)c2)sc(N)c1C(N)=O", "%", 80),
    ("Cc1cc(NC(=O)c2sc(N)c(C(N)=O)c2C)ccc1F", "%", 82),
]

# batch: return PPB for each of the 3 compounds below
1. Cc1c(C(=O)Nc2ccc(F)c(C#N)c2)sc(N)c1C(N)=O
2. Cc1c(C(=O)Nc2ccc(F)c(Cl)c2)sc(N)c1C(N)=O
3. Cc1c(C(=O)Nc2ccc(F)c(C(F)F)c2)sc(N)c1C(N)=O

69
90
82

Specify reported PPB for the compound shown: Cc1c(C(=O)Nc2ccccc2)sc(N)c1C(N)=O
50
